Test system: A549 NSCLC
Assay: NCI tumour cell line growth inhibition, 48 h
parameter: TGI

Returns the measured TGI for the input compound. Input: O=C(NNC1=NCCN1)c1ccco1
> 100 µM

TGI lookup needed for Cc1c(/C=N/NC(=S)Nc2ccccc2Cl)c(=O)n(-c2ccccc2)n1C , thanks.
> 100 µM

Find the recorded TGI belonging to COC1CC(OS(=O)(=O)c2ccc(C)cc2)C(OC(=O)c2ccccc2)C(C)O1 (stereo unspecified) and report it.
> 100 µM

Find the recorded TGI belonging to Cc1cc2c(C)n(Cc3ccc(Cl)cc3Cl)nc2c(C#N)c1C and report it.
> 100 µM

Which TGI is reported for this compound? Cc1ccc(/C=N/Nc2cnccn2)s1
> 100 µM

// returns reported TGI for input CCOC(=O)c1c(N2CCCC2)nsc1Nc1ccccc1
> 100 µM

Param item = CN(CCO)c1nc2c(c(=O)[nH]1)CCC2 ; retrieve measured TGI.
> 100 µM

TGI for COC(=O)c1ccc2c(O)c(O)ccc2c1 ?
42 µM

Returns the measured TGI for the input compound. Input: CCOC(=O)C1=C(O)C(=O)c2ccsc2C1=O
> 100 µM

Looking for the measured TGI of Cc1ccc(N2C(=O)C3c4[nH]c5ccccc5c4C4CCC(C(C)(C)C)CC4C3C2=O)cc1 (stereo unspecified) , can you help?
23.1 µM

Any idea what TGI was measured for N#Cc1c(N)oc(-c2cccc([N+](=O)[O-])c2)c1C#N ?
> 100 µM

# query: TGI of entry CN(C)c1ccc(/C=N\NC(=O)CSCC(=O)N/N=C/c2ccc(N(C)C)cc2)cc1
> 100 µM

Which TGI reading was recorded for the compound CCCCCC/C=C\CCCCCCCCCc1cccc(O)c1C(=O)O ?
> 100 µM

Report TGI for O=C(Cn1c2c(c3ccccc31)CCCC2)NC1CCCCC1 please.
> 100 µM

Field request: TGI | item: NNC(=O)c1ccc(-n2nnc(C(=O)NN)c2C(=O)NN)cc1
> 100 µM

Suppose we examine the compound O=c1oc2ccccc2c(Nc2ccc3c(c2)S(=O)(=O)c2ccccc2O3)c1[N+](=O)[O-] ; what TGI value has been reported?
> 100 µM

What does the data say about its TGI? Entry: O=C1C=C(Br)c2c(-c3ccccc3)oc3cccc1c23
> 100 µM

Can you look up the measured TGI of Cc1cc(=O)[nH]c(NN2C(Cl)C(=O)C2c2ccc(Cl)cc2)n1 (stereo unspecified) for me?
> 64.8 µM

Query: TGI; subject: COc1cccc(NC(=O)c2sc3nc4c(cc3c2N)CN(Cc2ccccc2)CC4)c1
53.8 µM

TGI lookup needed for O=C(c1ccccc1)C(CN1CCOCC1)c1ccccc1 (stereo unspecified) , thanks.
14.9 µM

For the compound shown here, CNC(=O)OCc1c(COC(=O)NC)c(C)n(-c2ccc(Br)cc2)c1C , give the reported TGI.
38.1 µM
